conditions: segatella copri, 12 h, 2 µM;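 also: drug levels quantified by LC–MS prior to and following incubation with the bacterium to assess its biotransformation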
Description: The drug is tested on Prevotella copri strain: DSM18205 for biotransformation. The drug concentrations were measured before and after a 12-h incubation by liquid-chromatography-coupled mass spectrometry (LC–MS)
Non-standard residues stand in square brackets, D forms with d. Residues, ends and D or L forms follow the SMILES beside them. pGlu = O=C1CC[C@@H](C(=O)O)N1; Thz = O=C(O)[C@@H]1CSCN1
measure: Bacterial Biotransformation

# compound, endpoint-value
rows = [
    ("CCN(CC)CCOC(=O)C1(C2CCCCC2)CCCCC1", "Compound NOT metabolized"),
    ("C[C@@H](c1ncncc1F)[C@](O)(Cn1cncn1)c1ccc(F)cc1F", "Compound NOT metabolized"),
    ("O=C1CC[C@@H](C(=O)N2CSC[C@H]2C(=O)O)N1 [PIDOTIMOD] ([pGlu]-[Thz]-OH)", "Compound metabolized"),
    ("N[C@@H](Cc1ccc(N(CCCl)CCCl)cc1)C(=O)O", "Compound metabolized"),
    ("CCN1CCCC1CNC(=O)c1cc(S(=O)(=O)CC)c(N)cc1OC (centres undefined) [AMISULPRIDE]", "Compound NOT metabolized"),
]

Input line: Record request: Bacterial Biotransformation value, item CN1C[C@H](C(=O)N[C@]2(C)O[C@@]3(O)[C@@H]4CCCN4C(=O)[C@H](Cc4ccccc4)N3C2=O)C=C2c3cccc4[nH]cc(c34)C[C@H]21.CN1C[C@H](C(=O)N[C@]2(C)O[C@@]3(O)[C@@H]4CCCN4C(=O)[C@H](Cc4ccccc4)N3C2=O)C=C2c3cccc4[nH]cc(c34)C[C@H]21.O=C(O)C(O)C(O)C(=O)O [ERGOTAMINE TARTRATE]
Output line: Compound metabolized

Input line: // repeat for COc1ccc(C(CN(C)C)C2(O)CCCCC2)cc1 (centres undefined) and report
Output line: Compound NOT metabolized

Input line: // repeat for `O=c1[nH]c2ccccc2n1CCCN1CCC(n2c(=O)[nH]c3cc(Cl)ccc32)CC1` and report
Output line: Compound NOT metabolized

Input line: // repeat for COc1cc2nc(N3CCN(C(=O)C4COc5ccccc5O4)CC3)nc(N)c2cc1OC.CS(=O)(=O)O (centres undefined) [DOXAZOSIN MESYLATE] and report
Output line: Compound metabolized

Input line: // repeat for CCC(COC(=O)c1cc(OC)c(OC)c(OC)c1)(c1ccccc1)N(C)C.O=C(O)/C=C\C(=O)O (centres undefined) and report
Output line: Compound metabolized

Input line: // repeat for `O=C(O)CCc1nc(-c2ccccc2)c(-c2ccccc2)o1` and report
Output line: Compound NOT metabolized

Input line: // repeat for NC(CO)(CO)CO.O=C(c1ccccc1)c1ccc2n1CCC2C(=O)O (centres undefined) and report
Output line: Compound metabolized

Input line: // repeat for CN1CCC(=C2c3ccccc3CC(=O)c3sccc32)CC1.O=C(O)/C=C/C(=O)O [KETOTIFEN FUMARATE] and report
Output line: Compound NOT metabolized

Input line: // repeat for `C=CC[C@@H]1/C=C(\C)C[C@H](C)C[C@H](OC)[C@H]2O[C@@](O)(C(=O)C(=O)N3CCCC[C@H]3C(=O)O[C@H](/C(C)=C/[C@@H]3CC[C@@H](O)[C@H](OC)C3)[C@H](C)[C@@H](O)CC1=O)[C@H](C)C[C@@H]2OC.O` and report
Output line: Compound NOT metabolized
